Recorded values, source PubChem BioAssay (NCATS).

# Tested on: OV90
# test: Primary qHTS to identify gynecologic anti-cancer compounds using libraries of approved drugs and bioactive compounds (AID 1345084); note: % is set by controls: 0 for no effect and ±100 for the full control effect; nearly all actives have a fitted effect of over 55% in size
# run-conditions: Gynecologic cancer cell panel viability, ATPlite luminescence, 48 h; series mostly up to 57.5 µM
Results filed as inconclusive are left out. Calls of active or inactive are those of the source. Calls come from the whole dose curve; as a rule, active = well fitted cell-killing curve with a large enough effect; inconclusive = small, poorly fitted or top-dose-only effect, or effect the other way; inactive = flat fitted curve, though single readings scatter.

{"columns": ["compound", "activity change, negative = cytotoxicity"],
 "data": [
  ["COC(=O)C12C(=O)C(C)=C(O)C1(C)C(C)=CC1C34CCC(OC3=O)C(C)(C)C4CCC12C (stereo not drawn)", "inactive"],
  ["CC(=O)NCCCCn1c2c(c3ccccc31)C(=O)NCC2", "inactive"],
  ["C=CC(C)(O)CC/C=C(/C)C(=O)OC1C(OC2OCC(OC3OC(CO)C(O)C(O)C3O)C(OC3OCC(O)C(OC4OC(C)C(O)C(O)C4O)C3O)C2O)COC(OC(=O)C23CCC(C)(C)CC2C2=CCC4C5(C)CCC(OC6OC(CO)C(OC7OC(CO)C(O)C(OC8OCC(O)C(O)C8O)C7O)C(O)C6O)C(C)(C)C5CCC4(C)C2(C)CC3O)C1O (stereo not drawn)", "-1.5% [at 6.55 µM] (inactive)"],
  ["COc1c(C)c(OCC=C(C)C)cc2c1C(=O)NC2=O", "inactive"],
  ["C/C=C/C1=CC2=CC(=O)C(C)(O)C(OC(=O)c3c(C)cc(O)cc3O)C2CO1 (stereo not drawn)", "inactive"],
  ["O=C(c1ccccn1)c1cnn2c(-c3ccncc3)ccnc12", "inactive"],
  ["CC(C)C(C#N)O[C@@H]1O[C@H](CO[C@@H]2OC[C@](O)(CO)[C@H]2O)[C@@H](O)[C@H](O)[C@H]1O (stereo partly drawn)", "inactive"],
  ["C/C=C/C1=CC2=C(CO1)C(=O)[C@](C)(O)[C@H](OC(=O)c1c(O)cc(OC)c(O)c1C)C2", "inactive"],
  ["CC(/C=C/C1(O)C(C)CC(O)CC1(C)C)OC1OC(CO)C(O)C(O)C1O (stereo not drawn)", "inactive"],
  ["CC(C)N(C[C@H]1O[C@@H](n2cnc3c(N)ncnc32)[C@H](O)[C@@H]1O)C1CC(CCc2nc3ccc(C(C)(C)C)cc3[nH]2)C1 (stereo partly drawn)", "inactive"],
  ["CC1(C)C[C@H]2C3=CCC4[C@@]5(C)CC[C@H](O[C@H]6O[C@H](C(=O)O)[C@@H](O)[C@H](O)[C@H]6O[C@H]6O[C@H](CO)[C@@H](O)[C@H](O)[C@H]6O[C@@H]6O[C@H](CO)[C@@H](O)[C@H](O)[C@H]6O)[C@](C)(CO)C5CC[C@@]4(C)[C@]3(C)CC[C@@]2(C)[C@H](O[C@@H]2OC[C@H](O)[C@H](OC3O[C@H](CO)[C@@H](O)[C@H](O)[C@H]3O)[C@H]2O)[C@@H]1O (stereo partly drawn)", "-1.3% [at 6.55 µM] (inactive)"],
  ["COc1ccc(/C=C/C(=O)O[C@H]2[C@@H]3C=CO[C@@H](O[C@@H]4O[C@H](CO)[C@@H](O)[C@H](O)[C@H]4O)[C@@H]3[C@@]3(CO)O[C@@H]23)cc1O", "inactive"],
  ["C=C1C2(CCC(=O)OC2(C)C)CC(OC(=O)/C(C)=C/C)C2(C)C13OC14C(=O)OC(C)(C(=O)C12C(=O)OC4C)C3OC(C)=O (stereo not drawn)", "inactive"]
]}

* * *

# test: Drug repurposing screens with cells derived from glioblastoma tumor samples (AID 1345199); note: % is set by controls: 0 for no effect and ±100 for the full control effect; nearly all actives have a fitted effect of over 40% in size
# run-conditions: GBM patient neurospheres viability, ATP luminescence, 48 h; at 45.9 µM (top of the series); tumour line D
Records with an inconclusive call do not appear.
Below: a set of entries, each annotated with reported activity, negative = cell killing.
readout-name: activity, negative = cell killing (%)

{"columns": ["compound", "readout-name", "measurement-unit", "assay-result"],
 "data": [
  ["CC(=O)OCC(=O)[C@@]1(O)CC[C@H]2[C@@H]3C[C@H](C)C4=CC(=O)C=C[C@]4(C)[C@H]3[C@@H](O)C[C@@]21C", "activity, negative = cell killing", "%", -18.9],
  ["CCCCCCCCCCCCCCCC(=O)OCC(COC(=O)CCCCCCCCCCCCCCC)OC(=O)CCCCCCCCCCCCCCC", "activity, negative = cell killing", "%", -3.31],
  ["O=C(O)c1cc(O)c2c(c1)[O][Bi][O]2", "activity, negative = cell killing", "%", -5.77],
  ["O=CCCCC=O", "activity, negative = cell killing", "%", -3.77],
  ["Nc1c(Br)cc(Br)cc1CNC1CCC(O)CC1 (stereo not given)", "activity, negative = cell killing", "%", -18.1]
]}

* * *

# System: DFO2036
# test: qHTS profiling for inhibitors of Plasmodium falciparum proliferation (AID 504749); note: nearly all actives have a fitted effect of over 60% in size; note: potency is the fitted concentration of half-maximal effect
# run-conditions: P. falciparum in erythrocytes, SYBR Green DNA, 72 h; series mostly up to 28.7 µM
Inconclusive results are not listed. The source made the active and inactive calls. Calls come from the whole dose curve; as a rule, active = well fitted inhibition curve with a large enough effect; inconclusive = small, poorly fitted or top-dose-only effect; inactive = flat fitted curve, though single readings scatter.

{"columns": ["molecule", "Potency"],
 "data": [
  ["CN=C(NC#N)Nc1ccc(C2=NNC(=O)C[C@@H]2C)cc1", "inactive"],
  ["CC1(C)S[C@@H]2[C@H](NC(=O)[C@@H](NC(=O)N3CCNC3=O)c3ccccc3)C(=O)N2[C@H]1C(=O)O", "inactive"],
  ["COC(C(=O)C(O)C(C)O)C1Cc2cc3cc(OC4CC(OC5CC(O)C(O)C(C)O5)C(O)C(C)O4)c(C)c(O)c3c(O)c2C(=O)C1OC1CC(OC2CC(OC3CC(C)(O)C(O)C(C)O3)C(O)C(C)O2)C(O)C(C)O1 (stereo not given)", "0.141 µM (active)"],
  ["CC(O)CO (stereo not given)", "inactive"],
  ["Cc1cn([C@H]2C[C@H](O)[C@@H](CO)O2)c(=O)[nH]c1=O", "inactive"]
]}

* * *

Below, each entry is listed alongside its reported Potency.
# System: Zika virus NS2B-NS3 protease (unlinked complex)
# test: Confirmatory screen GU AMC qHTS for Zika virus inhibitors (AID 1347153);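 note: enzyme at 25 nM with substrate at 10 µM below its Km of 18.3 µM; potency is the fitted concentration of half-maximal effect; nearly all actives have a fitted effect of over 70% in size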
# run-conditions: Recombinant NS2B-NS3 protease, AMC substrate fluorescence
Results filed as inconclusive are left out. The source made the active and inactive calls. Calls follow the shape of the dose curve; as a rule, active = well fitted inhibition curve with a large enough effect; inconclusive = small, poorly fitted or top-dose-only effect; inactive = flat fitted curve, though single readings scatter.

{"columns": ["compound", "Potency"],
 "data": [
  ["O=C(/C=C/c1c(C(=O)O)[nH]c2cc(Cl)cc(Cl)c12)Nc1ccccc1", "44.1 µM (active)"],
  ["O=C(O)c1ccc(CCCc2ccc(OCCc3ccc(F)cc3)cc2)o1", "49.4 µM (active)"],
  ["COc1cccc(-n2nc(C(=O)O)cc2-c2ccc(C3CCCCC3)c(Cl)c2)c1", "12.4 µM (active)"],
  ["O=S(=O)(O)c1ccc2c(N=Nc3ccc(S(=O)(=O)O)c4ccccc34)c(O)c(S(=O)(=O)O)cc2c1", "31.2 µM (active)"],
  ["CC(=O)O[C@@H]1C[C@]2(C)[C@@]3(CCC4[C@@]5(C)CC[C@H](O[C@@H]6O[C@H](C(=O)O)[C@@H](O)[C@H](O[C@@H]7O[C@H](CO)[C@H](O)[C@H](O)[C@H]7O[C@@H]7O[C@@H](C)[C@H](O)[C@@H](O)[C@H]7O[C@@H]7OC[C@](O)(CO)[C@H]7O)[C@H]6O[C@@H]6O[C@H](CO)[C@H](O)[C@H](O)[C@H]6O)C(C)(C)C5CC[C@]42C)O[C@@H](O)[C@]12C3CC(C)(C)[C@@H](OC(=O)/C=C/c1ccc(O)c(O)c1)[C@@H]2OC(=O)/C=C/c1ccccc1 (stereo not given in full)", "7.42 µM (active)"]
]}

* * *

# test: qHTS assay for small molecule agonists of retinoid X receptor alpha signaling (AID 588544)
# run-conditions: HEK293T RXRa-UAS-bla, beta-lactamase reporter, 18 h; 530 nm emission
Records with an inconclusive call do not appear.
readout-name: max response (%)

{"columns": ["molecule", "readout-name", "assay-result"],
 "data": [
  ["IC(I)I", "max response", 19.8],
  ["CC1=CCC(C(C)(C)O)CC1 (stereo not given)", "max response", -10.8],
  ["CC1=C2[C@@H]([C@H](C)CC[C@H]2/C=C(\\C)C(=O)O)[C@H](O)C1", "max response", 29.1],
  ["O=C(O)CCC(=O)C(=O)O", "max response", -2.92],
  ["CCCCC/C=C\\C/C=C\\CCCCCCCC(=O)O", "max response", -2.55]
]}

* * *

# System: PC49
# test: qHTS profiling for inhibitors of Plasmodium falciparum proliferation (AID 504749); note: nearly all actives have a fitted effect of over 60% in size
# run-conditions: P. falciparum in erythrocytes, SYBR Green DNA, 72 h; series mostly up to 28.7 µM
Results filed as inconclusive are left out. Activity calls are given as the source filed them. Calls come from the whole dose curve; as a rule, active = well fitted inhibition curve with a large enough effect; inconclusive = small, poorly fitted or top-dose-only effect; inactive = flat fitted curve, though single readings scatter.
Possible outcomes: true (1) = active, false (0) = inactive

{"columns": ["molecule", "tested-on", "category"],
 "data": [
  ["CO[C@H](C(=O)[C@@H](O)[C@@H](C)O)C1Cc2cc3cc(O[C@H]4C[C@@H](O[C@H]5C[C@@H](O)[C@H](O)[C@@H](C)O5)[C@@H](O)[C@@H](C)O4)c(C)c(O)c3c(O)c2C(=O)[C@H]1O[C@H]1C[C@@H](O[C@H]2C[C@@H](O[C@H]3C[C@](C)(O)[C@H](O)[C@@H](C)O3)[C@H](O)[C@@H](C)O2)[C@H](O)[C@@H](C)O1 (stereo partly specified)", "PC49", "true (1)"],
  ["Cc1ccccc1", "PC49", "false (0)"],
  ["CC1=CCC(C(C)(C)O)CC1 (stereo unspecified)", "PC49", "false (0)"],
  ["CCCCCCCC/C=C\\CCCCCCCC(=O)O", "PC49", "false (0)"],
  ["O=CCCCC=O", "PC49", "false (0)"],
  ["CN=C(NC#N)Nc1ccc(C2=NNC(=O)C[C@@H]2C)cc1", "PC49", "false (0)"],
  ["CC1=C(/C=C/C(C)=C/C=C/C(C)=C/C=C/C=C(C)/C=C/C=C(C)/C=C/C2=C(C)C(=O)CCC2(C)C)C(C)(C)CCC1=O", "PC49", "false (0)"],
  ["COc1ccc2c3c1O[C@H]1C[C@@H](O)C=C[C@@]31CCN(C)C2", "PC49", "false (0)"],
  ["Cc1cn([C@H]2C[C@H](O)[C@@H](CO)O2)c(=O)[nH]c1=O", "PC49", "false (0)"],
  ["Cc1ccccc1OCC(O)CNCCOc1ccc(C(N)=O)cc1 (stereo unspecified)", "PC49", "false (0)"],
  ["CCCCC(C)(O)C/C=C/[C@H]1[C@H](O)CC(=O)[C@@H]1CCCCCCC(=O)OC (stereo partly specified)", "PC49", "false (0)"]
]}
